Reference for the values: patent US20230203155A1

Target: T1, human ROR1-hFc fusion protein (extracellular domain) (human)
T1 construct: Whole entry 'human ROR1-Fc (CHO)'; also called hROR1; huROR1-Fc
T1 sequence (chain, as listed by the source limits assumed): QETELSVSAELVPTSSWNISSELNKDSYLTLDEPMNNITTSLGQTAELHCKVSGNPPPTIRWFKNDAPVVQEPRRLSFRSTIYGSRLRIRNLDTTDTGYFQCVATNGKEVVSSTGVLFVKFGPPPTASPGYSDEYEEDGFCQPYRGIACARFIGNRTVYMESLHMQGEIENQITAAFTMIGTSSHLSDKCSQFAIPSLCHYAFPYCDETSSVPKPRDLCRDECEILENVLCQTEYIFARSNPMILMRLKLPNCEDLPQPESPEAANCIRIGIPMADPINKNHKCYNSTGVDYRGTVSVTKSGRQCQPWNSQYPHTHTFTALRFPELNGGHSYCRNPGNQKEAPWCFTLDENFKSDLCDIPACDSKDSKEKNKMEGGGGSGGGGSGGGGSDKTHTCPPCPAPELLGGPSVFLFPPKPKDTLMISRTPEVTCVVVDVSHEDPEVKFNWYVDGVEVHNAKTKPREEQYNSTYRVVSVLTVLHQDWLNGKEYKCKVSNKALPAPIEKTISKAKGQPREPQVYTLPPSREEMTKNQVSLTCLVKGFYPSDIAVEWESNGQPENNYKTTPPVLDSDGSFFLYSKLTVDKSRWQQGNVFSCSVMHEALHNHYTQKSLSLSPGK
Assay: SPR, human ROR1 ECD-Fc on chip;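 note: SPR binding kinetics of VNAR and VNAR-Fc molecules run at a range of concentrations over immobilised target, rate and affinity constants fitted with QDat software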
value-type: kon (M⁻¹ s⁻¹)
Note: unit M⁻¹ s⁻¹ is implicit; provide only the numeric part.

Prompt: Value lookup for kon; key = B1 humanised V5 with His6myc tag (VNAR, VNAR; also called B1V5) VNAR: ASVDQSPSSLSASVGDRVTITCVVTGANYGLAATYWYRKNPGSSNQERISISGRYSESVNKRTMSFTLTISSLQPEDSATYYCKAYPWGAGAPWLVQWYDGAGTKVEIKQ
Completion: 52000

Prompt: Also D3 ADV2 dimer (VNAR, Listing names it 'D3V2 dimer'; also called D3V2 dimer) TRVDQSPSSLSASVGDRVTITCVLTDTSYGLYSTSWFRKNPGTTDWERMSIGGRYSESVNKGAKSFTLTISSLQPEDSATYYCKAQSGMAISTGSGHGYNWYDGAGTKVEIKGGGGSGGGGSGGGGSGGGGSGGGGSTRVDQSPSSLSASVGDRVTITCVLTDTSYGLYSTSWFRKNPGTTDWERMSIGGRYSESVNKGAKSFTLTISSLQPEDSATYYCKAQSGMAISTGSGHGYNWYDGAGTKVEIKQASGAHHHHHHGAEFEQKLISEEDL , if possible.
Completion: 609000

Prompt: Also B1 G2 (humanised/grafted B1) with His6myc tag (VNAR, VNAR) VNAR: TRVDQSPSSLSASVGDRVTITCVLTGANYGLASTYWYRKNPGSSNQERISISGRYSESVNKRTMSFTLTISSLQPEDSATYYCRAYPWGAGAPWLVQWYDGAGTKVEIKQ , if possible.
Completion: 185000

Prompt: Also D3 humanised ADV2 with His6myc tag (VNAR, VNAR; also called D3 AD V2) VNAR: TRVDQSPSSLSASVGDRVTITCVLTDTSYGLYSTSWFRKNPGTTDWERMSIGGRYSESVNKGAKSFTLTISSLQPEDSATYYCKAQSGMAISTGSGHGYNWYDGAGTKVEIKQ , if possible.
Completion: 45800

Prompt: Also P3A1 G2 dimer (VNAR, humanised VNAR dimer) TRVDQSPSSLSASVGDRVTITCVLTDTSYGLYSTYWYRKNPGTTDWERMSIGGRYSESVNKGAKSFTLTISSLQPEDSATYYCRAREARHPWLRQWYDGAGTKVEIKGGGGSGGGGSGGGGSGGGGSGGGGSTRVDQSPSSLSASVGDRVTITCVLTDTSYGLYSTYWYRKNPGTTDWERMSIGGRYSESVNKGAKSFTLTISSLQPEDSATYYCRAREARHPWLRQWYDGAGTKVEIKQASGAHHHHHHGAEFEQKLISEEDL , if possible.
Completion: 1.88e+06
